Target: T1R2/T1R3 (Homo sapiens) (UniProt Q8TE23+Q7RTX0)
Assay: Positive allosteric modulator activity at human T1R2/T1R3 expressed in PEAKrapid cells assessed as potentiation of sucrose-induced intracellular calcium influx by measuring sucrose EC50 at 30 uM measured for 120 secs by fluorescence based assay relative to FEMA4774
Format: functional, cell-based
Entries are grouped by Efficacy into these classes: low bracket = under 40%, middle bracket = from 40% up to 50%, high bracket = 50% and over

- structure-smiles-string: "CC(C)CC(=O)NCc1ccc(-c2cncc(C(=O)O)c2N)o1"
  class-name: "middle bracket"
- structure-smiles-string: "Nc1c(NC(=O)CCCNC(=O)[C@@H](N)C2CCCCC2)cncc1C(=O)O"
  class-name: "low bracket"
- structure-smiles-string: "CC(C)C(=O)NCc1ccc(-c2cncc(C(=O)O)c2N)o1"
  class-name: "low bracket"
- structure-smiles-string: "CC(C)(CC(=O)Nc1cncc(C(=O)O)c1N)NC(=O)[C@@H](N)C1CCCCC1.Cl.Cl"
  class-name: "high bracket"
- structure-smiles-string: "CC(C)CNC(=O)NCc1ccc(-c2cncc(C(=O)O)c2N)o1"
  class-name: "middle bracket"
- structure-smiles-string: "CC[C@H](C)[C@H](N)C(=O)NCc1ccc(-c2cncc(C(=O)O)c2N)o1"
  class-name: "high bracket"
- structure-smiles-string: "CC(=O)NCc1ccc(-c2cncc(C(=O)O)c2N)o1"
  class-name: "low bracket"
- structure-smiles-string: "CC(C)[C@@H](CC(=O)Nc1cncc(C(=O)O)c1N)NC(=O)[C@@H](N)C1CCCCC1"
  class-name: "low bracket"

Kindly identify the class of CC(C)C[C@@H](CC(=O)Nc1cncc(C(=O)O)c1N)NC(=O)[C@@H](N)C1CCCCC1 .
low bracket

Kindly identify the class of CC(C)CNC(=O)C(=O)NCc1ccc(-c2cncc(C(=O)O)c2N)o1 .
middle bracket

Kindly identify the class of CC(C)[C@H](N)C(=O)NCc1ccc(-c2cncc(C(=O)O)c2N)o1 .
high bracket

Kindly identify the class of Cl.Cl.Nc1c(C(=O)O)cncc1-c1ccc(CNC(=O)[C@@H](N)C2CCCCC2)o1 .
high bracket

Kindly identify the class of Nc1c(NC(=O)CCCCCCNC(=O)[C@@H](N)C2CCCCC2)cncc1C(=O)O .
low bracket

Kindly identify the class of Cl.Cl.Nc1c(NC(=O)CCCCNC(=O)[C@@H](N)C2CCCCC2)cncc1C(=O)O .
middle bracket

Kindly identify the class of CC(C)C[C@H](N)C(=O)NCc1ccc(-c2cncc(C(=O)O)c2N)o1 .
high bracket

Kindly identify the class of Nc1c(NC(=O)CC[C@H](Cc2ccccc2)NC(=O)[C@@H](N)C2CCCCC2)cncc1C(=O)O .
high bracket

Kindly identify the class of CC(C)[C@@H](CCC(=O)Nc1cncc(C(=O)O)c1N)NC(=O)[C@@H](N)C1CCCCC1 .
middle bracket

Kindly identify the class of C[C@@H](CC(=O)Nc1cncc(C(=O)O)c1N)NC(=O)[C@@H](N)C1CCCCC1 .
middle bracket

----------
Target: T1R2/T1R3 (Homo sapiens) (UniProt Q8TE23+Q7RTX0)
Test: Agonist activity at human T1R2/T1R3 expressed in PEAKrapid cells assessed as effect on intracellular calcium influx measured for 120 secs by fluorescence based assay
Type: functional, cell-based
The source made the active and inactive calls. The calls are words filed in the database; no cut-off is given here.
parameter: Activity

Reference set (5 entries):
- structure-smiles-string: "CC(C)C(=O)NCc1ccc(-c2cncc(C(=O)O)c2N)o1"
  Activity: "inactive"
- structure-smiles-string: "Cl.Cl.Nc1c(NC(=O)CCCCNC(=O)[C@@H](N)C2CCCCC2)cncc1C(=O)O"
  Activity: "inactive"
- structure-smiles-string: "CC[C@H](C)[C@@H](CCC(=O)Nc1cncc(C(=O)O)c1N)NC(=O)[C@@H](N)C1CCCCC1"
  Activity: "inactive"
- structure-smiles-string: "Nc1c(C(=O)O)cncc1-c1cccs1"
  Activity: "inactive"
- structure-smiles-string: "CC(C)CNC(=O)C(=O)NCc1ccc(-c2cncc(C(=O)O)c2N)o1"
  Activity: "inactive"

Return reported Activity; argument: CC(C)C[C@@H](CC(=O)Nc1cncc(C(=O)O)c1N)NC(=O)[C@@H](N)C1CCCCC1
inactive

Return reported Activity; argument: CC(C)[C@@H](CCC(=O)Nc1cncc(C(=O)O)c1N)NC(=O)[C@@H](N)C1CCCCC1
inactive

Return reported Activity; argument: Cc1nc2ccccc2c(N)c1C(=O)O
inactive

// provenance: ChEMBL document CHEMBL4433226
